Values compiled from patent US20260174875A1.

Biological target: human amylin receptor (hAMYR3) (Homo sapiens, UniProt O60896+P30988)
Construct: host or cells: BHK cells (Hollex-1 line expressing hCTR(a) and CRE-Luc), further transfected with human RAMP3
Sequence (P30988 25-474): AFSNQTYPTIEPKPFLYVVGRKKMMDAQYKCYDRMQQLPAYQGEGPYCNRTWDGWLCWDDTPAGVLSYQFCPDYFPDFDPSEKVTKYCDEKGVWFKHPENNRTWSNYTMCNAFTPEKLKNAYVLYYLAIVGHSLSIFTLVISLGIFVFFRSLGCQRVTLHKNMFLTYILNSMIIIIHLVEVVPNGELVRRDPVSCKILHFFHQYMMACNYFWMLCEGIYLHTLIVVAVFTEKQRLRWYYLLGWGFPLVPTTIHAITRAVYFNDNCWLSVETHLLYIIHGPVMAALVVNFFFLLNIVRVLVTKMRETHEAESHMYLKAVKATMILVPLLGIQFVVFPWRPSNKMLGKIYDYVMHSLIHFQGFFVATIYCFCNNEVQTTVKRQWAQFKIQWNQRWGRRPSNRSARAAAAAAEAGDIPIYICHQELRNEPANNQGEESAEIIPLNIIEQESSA
Sequence (O60896 24-148): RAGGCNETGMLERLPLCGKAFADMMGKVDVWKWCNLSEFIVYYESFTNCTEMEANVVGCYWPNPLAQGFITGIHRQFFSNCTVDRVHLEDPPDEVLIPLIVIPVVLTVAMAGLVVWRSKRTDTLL
Assay: Amylin receptor assay, method A (CRE-luciferase reporter, BHK cells)
Assay type: cell-based
Conditions: hAMYR3 Potency, 1% HSA, EC50, method A, in the presence of 1% HSA
Numbered stars: 1 amine (or outer) side, 2 acyl side, 3 side chain; on linkers, the order of the positions; unused ones are H or OH. Square brackets hold non-standard residues; d marks the D form. Side chains are listed from the residue outwards. * marks the point of attachment. C18 diacid = O=C(O)CCCCCCCCCCCCCCCCC(=O)*; C16 diacid = O=C(O)CCCCCCCCCCCCCCC(=O)*; γGlu = O=C(O)[C@H](CCC(=O)[*:2])N[*:1]; AEEA = NCCOCCOCC(=O)O; Aib = CC(C)(N)C(=O)O
substances and their reported EC50

substance	target or system	units symbol	EC50
H[Aib]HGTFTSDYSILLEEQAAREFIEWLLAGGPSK([AEEA-AEEA-γGlu-C18 diacid])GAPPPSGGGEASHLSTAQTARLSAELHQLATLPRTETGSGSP-NH2 [compound 101]	human amylin receptor (hAMYR3) (Homo sapiens, UniProt O60896+P30988)	nM	0.0955
Y[Aib]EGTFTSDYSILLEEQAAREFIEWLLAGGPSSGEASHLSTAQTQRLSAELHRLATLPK([AEEA-AEEA-γGlu-C18 diacid])TETGSGSP-NH2 [Compound 81]	human amylin receptor (hAMYR3) (Homo sapiens, UniProt O60896+P30988)	nM	0.188
H[Aib]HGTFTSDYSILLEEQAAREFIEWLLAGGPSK([AEEA-AEEA-γGlu-C18 diacid])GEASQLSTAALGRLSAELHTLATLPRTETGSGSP-NH2 [Compound 63]	human amylin receptor (hAMYR3) (Homo sapiens, UniProt O60896+P30988)	nM	0.0703
H[Aib]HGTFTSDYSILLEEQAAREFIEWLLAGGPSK([AEEA-AEEA-γGlu-C16 diacid])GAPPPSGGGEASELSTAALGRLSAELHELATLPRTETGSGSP-NH2 [Compound 12]	human amylin receptor (hAMYR3) (Homo sapiens, UniProt O60896+P30988)	nM	0.055
Y[Aib]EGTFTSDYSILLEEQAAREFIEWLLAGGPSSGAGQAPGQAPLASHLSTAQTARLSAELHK([AEEA-AEEA-γGlu-C18 diacid])LATLPRTETGSGSP-NH2 [Compound 98]	human amylin receptor (hAMYR3) (Homo sapiens, UniProt O60896+P30988)	nM	0.108
